- target of assay: PYL5 (Arabidopsis thaliana, UniProt Q9FLB1)
- Construct: 6X-His; made in house; host or cells: E. coli BL21[DE3]pLysS
- Sequence (Q9FLB1 whole entry): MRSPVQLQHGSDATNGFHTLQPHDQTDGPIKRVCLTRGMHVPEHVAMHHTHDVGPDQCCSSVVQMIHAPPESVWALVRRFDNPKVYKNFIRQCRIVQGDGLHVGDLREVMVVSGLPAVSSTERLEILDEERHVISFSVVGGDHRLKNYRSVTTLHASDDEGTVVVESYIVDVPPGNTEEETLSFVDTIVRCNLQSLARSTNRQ
- Sequence (Q9CAJ0 23-511 partner): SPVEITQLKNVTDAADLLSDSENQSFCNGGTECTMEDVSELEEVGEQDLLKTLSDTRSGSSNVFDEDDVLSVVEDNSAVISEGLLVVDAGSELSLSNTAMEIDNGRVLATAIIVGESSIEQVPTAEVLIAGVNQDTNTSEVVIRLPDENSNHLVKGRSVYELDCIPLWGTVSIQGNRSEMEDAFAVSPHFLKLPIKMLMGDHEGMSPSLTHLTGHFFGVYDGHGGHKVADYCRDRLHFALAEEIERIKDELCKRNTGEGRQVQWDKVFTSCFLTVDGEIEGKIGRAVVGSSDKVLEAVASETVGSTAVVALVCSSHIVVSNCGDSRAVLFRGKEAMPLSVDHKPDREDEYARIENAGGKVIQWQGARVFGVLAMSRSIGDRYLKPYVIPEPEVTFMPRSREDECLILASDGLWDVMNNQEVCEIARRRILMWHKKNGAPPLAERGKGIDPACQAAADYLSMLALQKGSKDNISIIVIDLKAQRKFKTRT
- assay procedure: receptor-mediated PP2C (HAB1) inhibition in vitro assay
- Assay type: biochemical
- protocol conditions: Table XII-B; calculated from dose curves; read-out: PP2C Activity (IC50 in uM) PYL5
Would you mind telling me the reported IC50 of each entry?

O=C(NS(=O)(=O)Cc1ccc([N+](=O)[O-])cc1)C1(c2ccccc2)CCCCC1 [Compound 63]	> 50 µM
N#Cc1ccc(CS(=O)(=O)NC(=O)C(C2CCCCC2)C2CCCCC2)cc1 [Compound 73]	> 50 µM

Attention now shifts to the item below.
Request: IC50 lookup needed for N#Cc1ccc(CS(=O)(=O)NC(=O)C2(c3cccs3)CCCCC2)cc1 [Compound 75] , thanks.
Response: > 50 µM

Cited source: patent US10757937B2
